These data points were gathered from paper PMC10722540.

Known ED90 (mM) of a selection of molecules
# target.or.test.system: bovine serum albumin (BSA) (Bos taurus)
# Construct: purchased Sigma-Aldrich (MO, USA)
# Sequence (P02769 25-607): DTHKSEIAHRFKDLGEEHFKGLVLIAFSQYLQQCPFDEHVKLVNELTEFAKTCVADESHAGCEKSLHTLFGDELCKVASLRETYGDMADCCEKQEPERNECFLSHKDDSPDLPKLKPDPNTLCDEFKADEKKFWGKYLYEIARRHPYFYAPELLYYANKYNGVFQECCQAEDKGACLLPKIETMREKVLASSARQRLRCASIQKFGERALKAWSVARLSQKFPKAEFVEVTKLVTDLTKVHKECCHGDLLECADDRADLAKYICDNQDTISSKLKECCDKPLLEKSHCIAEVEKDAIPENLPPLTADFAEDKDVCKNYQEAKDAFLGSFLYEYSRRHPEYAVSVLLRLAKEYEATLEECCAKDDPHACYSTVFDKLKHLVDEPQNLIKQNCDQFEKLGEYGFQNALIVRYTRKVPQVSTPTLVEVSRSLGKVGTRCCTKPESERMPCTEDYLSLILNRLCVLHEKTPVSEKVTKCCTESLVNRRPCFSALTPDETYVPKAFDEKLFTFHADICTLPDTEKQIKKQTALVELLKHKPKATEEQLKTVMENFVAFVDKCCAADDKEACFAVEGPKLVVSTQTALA
# assay.notes: Protein precipitation capacity (PPC), turbidimetric well-plate reader assay with BSA, log-normal dose–response model
# Format: biochemical
# experimental.conditions: BSA 0.1 mM; SE in parentheses

Consider the following illustrative entries.
molecule="Oc1cc(O)c2c(c1)O[C@H](c1ccc(O)c(O)c1)[C@H](O)[C@H]2c1c(O)cc(O)c2c1O[C@H](c1ccc(O)c(O)c1)[C@H](O)[C@H]2c1c(O)cc(O)c2c1O[C@H](c1ccc(O)c(O)c1)[C@H](O)C2 [Compound 13, PC C1, reference compound]" meas_value="1.57 (0.06) mM"
molecule="O=C(O)C(c1c(O)cc(O)c2c1O[C@H](c1ccc(O)c(O)c1)[C@@H](O)C2)c1c(O)cc(O)c2c1O[C@H](c1ccc(O)c(O)c1)[C@@H](O)C2 [Compound 3]" meas_value="3.34 (0.09) mM"
molecule="O=C(O[C@@H]1Cc2c(O)cc(O)cc2O[C@@H]1c1cc(O)c(O)c(O)c1)c1cc(O)c(O)c(O)c1 [Compound 14, Epigallocatechin-3-gallate, reference compound]" meas_value="1.76 (0.06) mM"

Turning now to a further record.
Challenge: Specify the recorded ED90 (mM) for O=C(O)C(c1c(O)cc(O)c2c1O[C@H](c1ccc(O)c(O)c1)[C@H](O)C2)c1c(O)cc(O)c2c1O[C@H](c1ccc(O)c(O)c1)[C@H](O)C2 [Compound 4, Epicatechin–carboxymethine–epicatechin] , system: bovine serum albumin (BSA) (Bos taurus).
Response given: 3.30 (0.08) mM

* * *

# assay.notes: Stability in phosphate buffered saline
# Format: physicochemical
# experimental.conditions: phosphate buffered saline; PBS pH 7.4, 0.01 M phosphate, 150 μM, first-order kinetics, UV 280 nm; read-out: half-life (t1/2)
Parameter half-life at 150 μM: see the listing below.
Give a bare numeral; the unit h is implied.

molecule="Oc1cc(O)c2c(c1)O[C@H](c1ccc(O)c(O)c1)[C@H](O)C2 [Compound 16, epicatechin, reference compound]" meas_value=15

Read the next record carefully.
Challenge: Please look at this molecule and report its half-life at 150 μM: Oc1cc(O)c2c(c1)O[C@H](c1ccc(O)c(O)c1)[C@@H](O)C2 [Compound 15, catechin, reference compound]
Response given: 22.3

* * *

# assay.notes: Octanol–water partition, shake-flask method
# Assay type: physicochemical
# experimental.conditions: 200 μM, n-octanol/water, 2 h mixing; SE in parentheses; read-out: log P (log10KOW)
hey, just use Yes if measured logP at 2 h is less than 0.2, otherwise No

Past entries and their recorded results:
compound="Oc1ccc([C@H]2Oc3c(Cc4c(O)cc(O)c5c4O[C@H](c4ccc(O)c(O)c4)[C@H](O)C5)c(O)cc(O)c3C[C@H]2O)cc1O [Compound 2, Epicatechin–methylene–epicatechin]" classification=Yes
compound=Oc1ccc([C@H]2Oc3c(Cc4c(O)cc(O)c5c4O[C@H](c4ccc(O)c(O)c4)[C@@H](O)C5)c(O)cc(O)c3C[C@@H]2O)cc1O classification=No
compound="Oc1cc(O)c2c(c1)O[C@H](c1ccc(O)c(O)c1)[C@H](O)[C@H]2c1c(O)cc(O)c2c1O[C@H](c1ccc(O)c(O)c1)[C@H](O)[C@H]2c1c(O)cc(O)c2c1O[C@H](c1ccc(O)c(O)c1)[C@H](O)C2 [Compound 13, PC C1, reference compound]" classification=Yes
compound="O=C(O[C@@H]1Cc2c(O)cc(O)cc2O[C@@H]1c1cc(O)c(O)c(O)c1)c1cc(O)c(O)c(O)c1 [Compound 14, Epigallocatechin-3-gallate, reference compound]" classification=No

Turning to the following compound.
Challenge: Criterion: logP at 2 h strictly below 0.2. Is it met by O=C(O)C(c1c(O)cc(O)c2c1O[C@H](c1ccc(O)c(O)c1)[C@@H](O)C2)c1c(O)cc(O)c2c1O[C@H](c1ccc(O)c(O)c1)[C@@H](O)C2 ?
Response given: Yes
